The measurements presented in this section are drawn from patent US20150031601A1.

Measured Protein binding (%) accompanies every entry in the list below.
- system_name: serum proteins
- test_protocol: 90% serum, 30 kDa ultrafiltration, HPLC
Value expressed in %; do not type the unit.

GFCWNVCVYRNYVRVCHRRCN [SEQ ID NO: 229]    91
GFCWYVCVYRNGVRSCYRRCN [SEQ ID NO: 44]    85
GFCWYVCYYRNGVRVCYRRCN [SEQ ID NO: 25]    98

Proceed to the following item.
Query :: Which measured Protein binding (%) value corresponds to GFCYNVCVYRNGVRRCYRRCN [SEQ ID NO: 207] ?
Result :: 91
